Would you kindly list koff for each of these binders?
Biological target: T1, recombinant human TfR (2474-TR, R&D Systems), biotinylated (human, UniProt P02786 89-760, biotinylated with EZ-Link NHS-PEG4-Biotinylation Kit)
T1 construct: Bought protein; also called immobilized recombinant human TfR; biotinylated human TfR
T1 sequence (P02786 89-760 limits assumed): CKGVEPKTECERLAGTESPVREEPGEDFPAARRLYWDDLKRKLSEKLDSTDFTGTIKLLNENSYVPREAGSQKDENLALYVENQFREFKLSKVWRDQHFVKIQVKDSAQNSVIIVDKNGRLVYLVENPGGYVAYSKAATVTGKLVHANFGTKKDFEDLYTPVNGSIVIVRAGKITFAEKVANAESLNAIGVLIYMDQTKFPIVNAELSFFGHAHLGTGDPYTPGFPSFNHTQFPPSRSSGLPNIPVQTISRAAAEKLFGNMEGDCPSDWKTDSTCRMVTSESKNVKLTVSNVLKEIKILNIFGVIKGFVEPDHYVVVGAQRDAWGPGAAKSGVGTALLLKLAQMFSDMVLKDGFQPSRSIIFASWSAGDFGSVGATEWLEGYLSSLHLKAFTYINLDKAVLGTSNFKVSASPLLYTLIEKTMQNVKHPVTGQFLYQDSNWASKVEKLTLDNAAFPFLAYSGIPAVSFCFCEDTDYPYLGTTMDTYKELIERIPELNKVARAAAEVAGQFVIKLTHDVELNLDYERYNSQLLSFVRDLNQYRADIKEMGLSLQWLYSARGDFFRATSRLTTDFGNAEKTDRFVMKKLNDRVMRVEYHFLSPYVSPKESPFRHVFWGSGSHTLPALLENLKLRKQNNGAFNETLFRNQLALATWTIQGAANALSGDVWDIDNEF
Assay: SPR (Biacore), biotinylated human TfR captured on an SA chip, VHH injected, 1:1 dissociation fit, pH 5.5
Method: In brief, DNA was synthesized by Genscript (Piscataway, New Jersey, United States) and cloned into an E. coli compatible expression plasmid according to standard methods. […] Crude extracts were prepared and analyzed for binding by flow cytometry on human TfR overexpressing cells. […] Next, off rates of these selected variants were determined on recombinant human TfR by surface plasmon resonance (Biacore, Marlborough, Massachusetts, United States). […] The dissociation was monitored for around 20 min. […]
Express the result in s⁻¹ but write the number alone.

Record BBB00697 (VHH, also called histidine mutant of BBB00515) VHH: EVQLVESGGGSVQPGGSLRLSCTASGRTHNYAMGWFRQAPGKNREFVATIDWKDGSSYYLDSVRGRFTIERDDAKNTVYLQMNSLRPEDAAVYTCAVGDGDYCSTYTCAAEVEYDYWGQGTLVTVSS . Reported koff: 0.0107

Record BBB00707 (VHH, Histidine mutant) VHH: EVQLVESGGGSVQPGGSLRLSCTASGRTFNYAMGWFRQAPGKNREFVATIDWHDGSSYYLDSVRGRFTIERDDAKNTVYLQMNSLRPEDAAVYTCAVGDGDYCSTYTCAAEVEYDYWGQGTLVTVSS . Reported koff: 0.00632

Record BBB00719 (VHH, Histidine mutant) VHH: EVQLVESGGGSVQPGGSLRLSCTASGRTFNYAMGWFRQAPGKNREFVATIDWKDGSSYYLDSVRGRFTIERDDAKNTVYLQMNSLRPEDAAVYTCAVGDGDYCSHYTCAAEVEYDYWGQGTLVTVSS . Reported koff: 0.0091

Record BBB00708 (VHH, Histidine mutant) VHH: EVQLVESGGGSVQPGGSLRLSCTASGRTFNYAMGWFRQAPGKNREFVATIDWKHGSSYYLDSVRGRFTIERDDAKNTVYLQMNSLRPEDAAVYTCAVGDGDYCSTYTCAAEVEYDYWGQGTLVTVSS . Reported koff: 0.0086

Record BBB00710 (VHH, also called histidine mutant of BBB00515) VHH: EVQLVESGGGSVQPGGSLRLSCTASGRTFNYAMGWFRQAPGKNREFVATIDWKDGHSYYLDSVRGRFTIERDDAKNTVYLQMNSLRPEDAAVYTCAVGDGDYCSTYTCAAEVEYDYWGQGTLVTVSS . Reported koff: 0.0126

Record BBB00699 (VHH, Histidine mutant) VHH: EVQLVESGGGSVQPGGSLRLSCTASGRTFNHAMGWFRQAPGKNREFVATIDWKDGSSYYLDSVRGRFTIERDDAKNTVYLQMNSLRPEDAAVYTCAVGDGDYCSTYTCAAEVEYDYWGQGTLVTVSS . Reported koff: 0.00858

Record BBB00695 (VHH, Histidine mutant) VHH: EVQLVESGGGSVQPGGSLRLSCTASGHTFNYAMGWFRQAPGKNREFVATIDWKDGSSYYLDSVRGRFTIERDDAKNTVYLQMNSLRPEDAAVYTCAVGDGDYCSTYTCAAEVEYDYWGQGTLVTVSS . Reported koff: 0.00874

Record BBB00694 (VHH, Histidine mutant) VHH: EVQLVESGGGSVQPGGSLRLSCTASHRTFNYAMGWFRQAPGKNREFVATIDWKDGSSYYLDSVRGRFTIERDDAKNTVYLQMNSLRPEDAAVYTCAVGDGDYCSTYTCAAEVEYDYWGQGTLVTVSS . Reported koff: 0.00728
